tested on: SF-539 CNS; assay: NCI tumour cell line growth inhibition, 48 h
Please provide measured TGI for the entries that follow.

**Q:** Given the entry "Cc1c(C)c(C)c(Cn2[nH]c(=O)n(C)c2=O)c(C)c1C" , report its measured TGI.
**A:** > 100 µM

**Q:** Given the entry "CC1(C)[C@@H]2CC[C@]1(C)[C@H](OC(=O)/C=C/c1ccccc1)C2" , report its measured TGI.
**A:** 35.9 µM

**Q:** Given the entry "COc1cc(/C=C(\NC(=O)c2ccccc2)c2nc3ccc4c(c3[nH]2)C(=O)c2ccccc2C4=O)cc(OC)c1OC" , report its measured TGI.
**A:** > 100 µM

**Q:** Given the entry COc1ccc(/C=C2/CSCC3=C2NC(=S)NC3c2ccc(OC)c(OC)c2OC)c(OC)c1OC (stereo not drawn) , report its measured TGI.
**A:** 49.5 µM

**Q:** Given the entry CN(CCCCCl)P(=O)(OCCS(=O)(=O)CC(NC(=O)CCC(N)C(=O)O)C(=O)NC(C(=O)O)c1ccccc1)OCC1OC(n2ccc(N)nc2=O)C(O)C1O (stereo not drawn) , report its measured TGI.
**A:** > 75 µM

**Q:** Given the entry "O=C(Nc1cccc2c1C(=O)c1c(NC(=O)c3ccccc3)ccc(Nc3cccc4c3C(=O)c3ccccc3C4=O)c1C2=O)c1ccccc1" , report its measured TGI.
**A:** > 100 µM

**Q:** Given the entry CCOC(=O)C(NC(=O)c1ccccc1)(Nc1ccc(S(=O)(=O)Nc2ncccn2)cc1)C(F)(F)F (stereo not drawn) , report its measured TGI.
**A:** > 100 µM

**Q:** Given the entry "CC(=O)Nc1cc2cc(N)ccc2oc1=O" , report its measured TGI.
**A:** > 100 µM

====

system: UO-31 renal; experiment: NCI tumour cell line growth inhibition, 48 h; in the data active = GI50 below about 0.43 µM; inactive = the rest
Could you please pick one outcome from this set? active, inactive

**Q:** Outcome? "COc1ccc(C=Nc2c(C(=O)Nc3cccc(Cl)c3C)sc3nc(C)c(C(=O)/C=C/c4ccc(OC)cc4)cc23)cc1"
**A:** inactive

**Q:** Outcome? "Cc1nc2c(c(N3CCCc4ccccc43)n1)CCC2"
**A:** active

**Q:** Outcome? "COc1ccc2c3c(Nc4cccc(/C(C)=N\O)c4)[nH]c4ccccc4c-3c(N=O)c2c1"
**A:** inactive

====

Please provide measured TGI for the entries that follow.
system: T-47D breast; assay: NCI tumour cell line growth inhibition, 48 h

**Q:** Given the entry "CCNC(=O)c1cc(Cl)ccc1NC(=O)C12CC3CC(CC(C3)C1)C2" , report its measured TGI.
**A:** > 100 µM

**Q:** Given the entry "Cc1cccc(Br)[n+]1[O-]" , report its measured TGI.
**A:** > 100 µM

**Q:** Given the entry "Clc1cccc(-c2sc(-c3ccsc3)cc2Cc2ccsc2)c1" , report its measured TGI.
**A:** > 10 µM

**Q:** Given the entry O=C1C(=C(C(F)(F)Cl)C(F)(F)Cl)C2CCC1C2 (stereo unspecified) , report its measured TGI.
**A:** 4.58 µM

**Q:** Given the entry "COC(=O)C1CCN(C(=O)OC(C)(C)C)CC1" , report its measured TGI.
**A:** > 100 µM

**Q:** Given the entry "CSC(=NC#N)S/C=C/C(=O)c1ccccc1" , report its measured TGI.
**A:** > 100 µM

====

tested on: HL-60(TB) leukemia; assay: NCI tumour cell line growth inhibition, 48 h
Record 1 whenever TGI is at 2 µM or higher; record 0 when lower.

**Q:** Hello, I need to know if "N=C(N)c1ccc(-c2ccc(/C=C/c3ccccc3)s2)cc1" has measured TGI not below 2 µM. Thanks!
**A:** 1

**Q:** Hello, I need to know if N/N=C1\C(=O)N(Cc2ccccc2)C(=O)C1C(=O)NCc1ccccc1 (stereo not drawn) has measured TGI not below 2 µM. Thanks!
**A:** 1

**Q:** Hello, I need to know if CC(CCC[C@H](C)CO)[C@H]1[C@@H](O)C(O)C2[C@@H]3C[C@@H](O)C4(O)C[C@@H](O)CC[C@]4(C)C3CC[C@@]21C (stereo partly drawn) has measured TGI not below 2 µM. Thanks!
**A:** 1

**Q:** Hello, I need to know if "Cc1ccc2oc(=O)cc(/C(=C3/C=CC=N3)c3ccc[nH]3)c2c1" has measured TGI not below 2 µM. Thanks!
**A:** 0

**Q:** Hello, I need to know if CCCCC(CCCCCC(CCCC)NCc1ccc2c(c1)OCO2)NCc1ccc2c(c1)OCO2 (stereo not drawn) has measured TGI not below 2 µM. Thanks!
**A:** 0

**Q:** Hello, I need to know if Cc1ccc(C2(c3ccc(Cl)cc3)c3ccccc3C3=NCCN32)cc1 (stereo not drawn) has measured TGI not below 2 µM. Thanks!
**A:** 1

**Q:** Hello, I need to know if "COc1cc(-c2nc3ccc(N4CCN(C)CC4)cc3[nH]2)c(OC)c2[nH]c(COC(C)=O)nc12" has measured TGI not below 2 µM. Thanks!
**A:** 1

====

tested on: HL-60(TB) leukemia; assay: NCI tumour cell line growth inhibition, 48 h
Please provide measured TGI for the entries that follow.

**Q:** Given the entry "COc1ccc(C2=NN(c3ccccc3)C[N+](c3ccc(C)cc3)=N2)cc1" , report its measured TGI.
**A:** > 100 µM

**Q:** Given the entry "CCOC(=O)C(=O)Nc1nc2c(OCC)cccc2s1" , report its measured TGI.
**A:** > 100 µM

**Q:** Given the entry "CN(C)CCN1C(=O)c2cccc3cc([N+](=O)[O-])cc(c23)C1=O" , report its measured TGI.
**A:** > 45.3 µM

====

tested on: K-562 leukemia; assay: NCI tumour cell line growth inhibition, 48 h
readout_label: GI50

**Q:** Given the entry "COc1cc(OC)cc(-c2ccc(-c3ccc(C(=N)N)cn3)o2)c1" , report its measured GI50.
**A:** 1320 nM

**Q:** Given the entry "CCCCOC(=O)c1ccc(N)cc1" , report its measured GI50.
**A:** 6660 nM

**Q:** Given the entry COc1cc(C2CC(c3cccc(Nc4ccnc5cc(Cl)ccc45)c3)=NN2c2ccc(Cl)cc2)cc(OC)c1OC (stereo not drawn) , report its measured GI50.
**A:** 755 nM

====

Please provide measured GI50 for the entries that follow.
test system: OVCAR-5 ovarian; experiment: NCI tumour cell line growth inhibition, 48 h

**Q:** Given the entry NC(=NCc1ccccc1)C(N=Nc1ccccc1)C(=O)NCc1ccccc1 (stereo not drawn) , report its measured GI50.
**A:** 18 µM

**Q:** Given the entry "Cc1c(-c2ccc(C3CCCCC3)cc2)nc2ccc(F)cc2c1C(=O)O" , report its measured GI50.
**A:** > 100 µM

**Q:** Given the entry "Cn1c(=O)c(Oc2ccc(F)cc2F)cc2cnc(NC(C)(C)CO)nc21" , report its measured GI50.
**A:** > 25 µM

====

test system: MDA-MB-231 breast; assay: NCI tumour cell line growth inhibition, 48 h
readout_label: TGI

**Q:** Enter reported TGI observed with MDA-MB-231 breast for "NC(N)=NS(=O)(=O)c1ccc(N/N=C2/CCOC2=O)cc1"
**A:** > 100 µM

**Q:** Enter reported TGI observed with MDA-MB-231 breast for CC(=O)OC1CCC2(C)C(CCC3C2CC(=O)C2(C)C3CC(N3CC3)C2C(C)=O)C1 (centres undefined)
**A:** 38.1 µM

**Q:** Enter reported TGI observed with MDA-MB-231 breast for "Cc1c(C)c(C)c(Cn2[nH]c(=O)n(C)c2=O)c(C)c1C"
**A:** > 100 µM

**Q:** Enter reported TGI observed with MDA-MB-231 breast for "CC(=O)O[C@H]([C@H](OC(C)=O)[C@H](C)OC(C)=O)[C@@H](/C=C/[C@@H]1CC=CC(=O)O1)OC(C)=O"
**A:** > 100 µM

**Q:** Enter reported TGI observed with MDA-MB-231 breast for C[C@@]1(C(=O)O)CCC[C@]2(C)C1CC[C@@]13C[C@@](O)(CC[C@]12O)[C@@]1(CO1)C3 (some centres undefined)
**A:** > 100 µM

**Q:** Enter reported TGI observed with MDA-MB-231 breast for "CC(=O)Nc1cc2cc(N)ccc2oc1=O"
**A:** > 100 µM

**Q:** Enter reported TGI observed with MDA-MB-231 breast for "O=C(CN(C(=O)OC12CC3CC(CC(C3)C1)C2)C(=O)OC12CC3CC(CC(C3)C1)C2)Oc1ccc([N+](=O)[O-])cc1"
**A:** > 100 µM

**Q:** Enter reported TGI observed with MDA-MB-231 breast for "O=C1C(Cl)=C(Nc2ccc(Nc3ccccc3)c(NC3=C(Cl)C(=O)c4ccccc4C3=O)c2)C(=O)c2ccccc21"
**A:** 6.02 µM

**Q:** Enter reported TGI observed with MDA-MB-231 breast for "CN(C)CCCN(CCC1CCCCC1)CCC1CCCCC1"
**A:** 3.97 µM
